MEASUREMENT_DESCRIPTION: Inhibition of calcium ionophore (A-23187)-stimulated LTB4 formation in human neutrophil assay
Documented IC50 across a set of molecules
MEASURED_ENDPOINT: IC50

• CC(C)c1ccc(-c2csc(COc3ccc(C(O/N=C/C(=O)O)C4CCCCC4)cc3)n2)cc1 (stereo not given) = 35 nM
• O=C(O)/C=N/OCC(c1ccc(OCc2ccc3ccccc3n2)cc1)C1CCCCC1 (stereo not given) = 47 nM
• O=C(O)/C=N/OC(c1ccc(CCc2ccc3ccccc3n2)cc1)C1CCCCC1 (stereo not given) = 290 nM
• C=CCC(O/N=C(\C)C(=O)O)c1ccc(OCc2ccc3ccccc3n2)cc1 (stereo not given) = 142 nM
• CCCCC(O/N=C/C(=O)O)c1ccc(OCc2ccc3ccccc3n2)cc1 (stereo not given) = 52 nM
• O=C(O)/C(Cc1ccccc1)=N/OC(c1ccc(OCc2ccc3ccccc3n2)cc1)C1CCCCC1 (stereo not given) = 35 nM
• CCCCC(CCCC)C(O/N=C(\C)C(=O)O)c1ccc(OCc2ccc3ccccc3n2)cc1 (stereo not given) = 14 nM
• O=C(O)/C=N/OC(c1ccc(OCc2nc3ccccc3s2)cc1Br)C1CCCCC1 (stereo not given) = 22 nM
• O=C(O)/C=N/OC(c1ccc2cc(OCc3ccc4ccccc4n3)ccc2c1)C1CCCCC1 (stereo not given) = 56 nM
• C/C(CCC(=O)O)=N/OC(c1ccc(OCc2ccc3ccccc3n2)cc1)C1CCCCC1 (stereo not given) = 20 nM

# credit: BindingDB's records for doi:10.1021/jm9904102
